test system: CCRF-CEM leukemia; assay: NCI tumour cell line growth inhibition, 48 h
Where a SMILES comes first, the peptide text is derived from it. The star is where a group is joined. Trt = c1ccc(C(c2ccccc2)(c2ccccc2)*)cc1; Cbz = O=C(OCc1ccccc1)*
measured.metric: TGI

>>> recorded_measurement("C=C1CC2[C@H](C)C(=O)CCC2(C)C2=C1C1CCC(C(C)CCC(=C)C(C)C(=O)O)C1(C)CC2=O (some centres undefined)")
"30.3 µM"
>>> recorded_measurement("NS(=O)(=O)c1ccc(NC(=O)c2cccc(NC3=C(Cl)C(=O)N(Cc4ccccc4)C3=O)c2)cc1")
"8.17 µM"
>>> recorded_measurement("O=C1C(c2c(O)[nH]c3ccc(S(=O)(=O)NCCO)cc23)=Nc2ccccc21")
"> 100 µM"
>>> recorded_measurement("O=C(/C=C/c1ccco1)c1ccc(Nc2nc(Nc3ccc(F)cc3)nc(Nc3ccc(F)cc3)n2)cc1")
"> 100 µM"
>>> recorded_measurement("CN1CN(C(=O)N2CN(C)C(=O)N(C)C2)CN(C)C1=O")
"> 100 µM"

Batch lookup, TGI per entry.
1. COC(=O)C(CSC(c1ccccc1)(c1ccccc1)c1ccccc1)NC(=O)C(CC(N)=O)NC(=O)OCc1ccccc1 (stereo not drawn) (Cbz-Asn-Cys(Trt)-OMe; configuration not given here)
2. COC(=O)c1ccc(NCC2=C(Br)C(=O)C=CC2=O)cc1Cl
3. O=C(Nc1cccc(C(F)(F)F)c1)c1cc2ccccc2cc1O
4. COc1ccc(-c2nc(C(=O)c3ccccc3)n(CC(=O)c3ccc(Cl)cc3)c2-c2ccc(OC)cc2)cc1
5. Cc1cc2nc(-c3c(F)cccc3Cl)n(Cc3c(F)cccc3Cl)c2cc1C
6. O=C(Nc1ccc(Cl)cc1)c1cc(S(=O)(=O)Nc2n[nH]c(=O)n2-c2ccccc2)c(S)cc1Cl
7. FC(F)(F)c1ccc2nc(Sc3ccc4ccccc4c3)cnc2c1

Completion:
1: 19.7 µM; 2: > 100 µM; 3: > 100 µM; 4: > 100 µM; 5: > 100 µM; 6: > 100 µM; 7: > 100 µM

Batch lookup, TGI per entry.
1. c1ccc(-c2nnc3nn4c(-c5ccccc5)cnnc4c3c2-c2ccccc2)cc1
2. CCCCNC1=C(C(=O)OCC)/C(=N/NC(=O)c2ccccc2O)CO1

Completion:
1: > 100 µM; 2: > 100 µM

---

tested on: MDA-MB-231 breast; experiment: NCI tumour cell line growth inhibition, 48 h; in the data active means GI50 below about 0.43 µM; inactive means the rest
Classes to choose from: class 1 (active), class 0 (inactive)

Past entries and their recorded results:
>>> label_value("NS(=O)(=O)c1ccc(NC(=O)c2cccc(NC3=C(Cl)C(=O)N(Cc4ccccc4)C3=O)c2)cc1")
"class 0"
>>> label_value("O=Cc1ccc(N2CCN(c3ccc(C=O)cc3)CC2)cc1")
"class 0"
>>> label_value("Nc1nc(N)c2c(n1)NC(c1sc(Cl)nc1Cl)CC(c1ccc3c(c1)OCO3)=N2 (stereo unspecified)")
"class 0"
>>> label_value("COc1ccc(C2=Nc3c/c(=C\\c4c(O)[nH]c5cc(Cl)ccc45)ccc3=N2)cc1")
"class 0"
>>> label_value("COc1ccc(-c2n/c(=C\\c3c(O)[nH]c4ccccc34)cc3c2=Nc2ccccc2-3)cc1")
"class 0"

Okay, next one:
Prompt: For this molecule, state the assay outcome: COc1cc2c(cc1OCCCOc1ccc(-c3nc4ccc(N5CCN(C)CC5)cc4[nH]3)cc1)N=C[C@@H]1CCCN1C2=O
Completion: class 1

Origin of measurements: PubChem BioAssay (NCI)
